Origin of values: the CheMixHub drug solubility set

experimental-details: xn = mol fraction of the nth substance listed, in the solute-free solvent
recorded-conditions: 313.15 K; x2 = 0.04165
measured-parameter: solubility (g/100 g solution)

| compound | solubility (g/100 g solution) |
| --- | --- |
| CC(C)OC(=O)C(C)NP(=O)(OCC1OC(n2ccc(=O)[nH]c2=O)C(C)(F)C1O)Oc1ccccc1 (centres undefined) + CCO + O | 2.71 |

1: Nc1cccc(S(=O)(=O)c2cccc(N)c2)c1 + CCO + O
2: Cc1[nH]c(=O)c(C#N)cc1-c1ccncc1 + CCO + O
3: COc1cc2c(cc1OC)-c1cc3ccc(OC)c(OC)c3c[n+]1CC2.[Cl-] + CCO + O
Query string: List by increasing solubility (g/100 g solution). Use the labels to give the requested order.
Result string: 2, 1, 3
